# targetSystem: PKM2 (Homo sapiens)
# Sequence (P14618 whole entry): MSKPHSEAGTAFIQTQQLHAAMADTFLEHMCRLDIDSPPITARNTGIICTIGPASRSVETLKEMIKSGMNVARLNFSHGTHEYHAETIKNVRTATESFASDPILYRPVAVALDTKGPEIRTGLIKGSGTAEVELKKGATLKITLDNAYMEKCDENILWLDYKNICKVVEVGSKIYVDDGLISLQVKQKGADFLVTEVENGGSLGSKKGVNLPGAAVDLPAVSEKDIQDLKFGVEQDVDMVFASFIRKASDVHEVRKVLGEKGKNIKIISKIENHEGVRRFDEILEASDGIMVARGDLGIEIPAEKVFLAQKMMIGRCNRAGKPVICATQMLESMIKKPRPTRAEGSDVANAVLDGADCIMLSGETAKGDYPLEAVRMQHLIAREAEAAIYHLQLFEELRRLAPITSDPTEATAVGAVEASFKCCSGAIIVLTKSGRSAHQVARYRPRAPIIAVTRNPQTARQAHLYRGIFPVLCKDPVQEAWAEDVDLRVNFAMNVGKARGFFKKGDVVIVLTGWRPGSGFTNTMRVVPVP
# assayMethodText: PKM2 Biochemical Assay
# assayContext: % maximum response in a biochemical assay as compared with Fructose 1,6-bisphosphate
measuredProperty: Max. Resp. (%)
Numeric answer only, unit % assumed.

compound	resultValue
CN(C)CCN(Cc1ccccc1Cl)C(=O)c1cc(C(F)(F)F)n[nH]1 [Example 187]	100

Request: Consider the compound shown here: O=C(c1cc(C(F)(F)F)n[nH]1)N(CCC1CCS(=O)(=O)C1)Cc1cc(F)cc(F)c1 (centres unmarked) [Example 69] What is its recorded Max. Resp.?
Response: 74

Request: Query: Max. Resp.; subject: O=C(c1cc(C(F)(F)F)n[nH]1)N(Cc1ccccc1Cl)CC1CCN1 (centres unmarked) [Example 227]
Response: 100

Request: Bench note: what Max. Resp. did COCCCN(Cc1ccccc1F)C(=O)c1cc(C(F)(F)F)n[nH]1 [Example 23] show?
Response: 75

Request: Any idea what its Max. Resp. is? The compound is O=C(c1cc(C(F)(F)F)n[nH]1)N(CCC1CCS(=O)(=O)C1)Cc1cc(F)ccc1F (centres unmarked) [Example 70]
Response: 91
